target: ATP-dependent translocase ABCB1 (Homo sapiens, UniProt P08183); experiment: Inhibition of ABCB1 (unknown origin) expressed in Flp-In-293 cells assessed as increase in calcein-AM uptake at 5 uM preincubated for 30 mins followed by calcein-AM addition measured after 30 mins by fluorescence spectrometric method relative to control; format: cell-based; conditions: 0.5 h
Sequence (P08183 whole entry): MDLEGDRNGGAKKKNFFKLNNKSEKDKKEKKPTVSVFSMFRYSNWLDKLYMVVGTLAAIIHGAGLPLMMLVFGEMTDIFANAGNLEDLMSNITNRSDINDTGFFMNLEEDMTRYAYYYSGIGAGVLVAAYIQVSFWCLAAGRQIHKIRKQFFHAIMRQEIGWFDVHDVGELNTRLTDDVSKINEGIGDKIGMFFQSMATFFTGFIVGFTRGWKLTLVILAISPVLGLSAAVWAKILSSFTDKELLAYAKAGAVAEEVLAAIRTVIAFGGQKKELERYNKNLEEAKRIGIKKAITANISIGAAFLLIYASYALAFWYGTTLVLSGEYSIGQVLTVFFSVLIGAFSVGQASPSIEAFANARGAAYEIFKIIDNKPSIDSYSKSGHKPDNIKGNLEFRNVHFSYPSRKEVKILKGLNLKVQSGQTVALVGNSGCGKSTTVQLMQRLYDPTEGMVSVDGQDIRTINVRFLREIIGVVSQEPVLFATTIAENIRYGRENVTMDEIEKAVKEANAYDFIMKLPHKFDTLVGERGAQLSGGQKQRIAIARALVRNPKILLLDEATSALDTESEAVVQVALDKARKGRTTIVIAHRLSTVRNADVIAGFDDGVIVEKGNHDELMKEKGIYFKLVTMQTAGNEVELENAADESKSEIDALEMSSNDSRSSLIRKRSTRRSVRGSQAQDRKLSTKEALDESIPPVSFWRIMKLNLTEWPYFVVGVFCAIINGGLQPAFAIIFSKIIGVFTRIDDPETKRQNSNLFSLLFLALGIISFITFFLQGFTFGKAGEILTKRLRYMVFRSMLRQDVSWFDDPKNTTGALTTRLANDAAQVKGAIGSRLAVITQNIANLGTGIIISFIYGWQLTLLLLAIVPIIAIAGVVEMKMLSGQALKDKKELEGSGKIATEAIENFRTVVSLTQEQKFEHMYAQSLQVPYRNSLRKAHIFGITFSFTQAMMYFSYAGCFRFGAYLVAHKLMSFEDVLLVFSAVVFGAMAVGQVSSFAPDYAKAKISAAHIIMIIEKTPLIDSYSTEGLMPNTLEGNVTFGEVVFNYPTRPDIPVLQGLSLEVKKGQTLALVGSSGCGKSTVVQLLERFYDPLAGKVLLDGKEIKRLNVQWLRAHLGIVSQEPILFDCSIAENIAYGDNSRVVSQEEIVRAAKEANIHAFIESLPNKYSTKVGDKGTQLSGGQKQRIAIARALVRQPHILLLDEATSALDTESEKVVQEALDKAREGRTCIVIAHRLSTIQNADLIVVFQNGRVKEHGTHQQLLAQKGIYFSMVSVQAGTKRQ
attribute-measured: fold change (FC)

Here is how some molecules turned out for fold change (FC).
COc1ccc(-c2cc(OC(C)=O)c3c(-c4ccc(Cl)cc4)c(N)oc3c2)cc1    2.2
COc1ccc(-c2cc(OCc3ccccc3)c3c(-c4cccs4)c(N)oc3c2)cc1    0.81
COc1ccc(-c2cc(OC(C)=O)c3c(-c4ccc(OC)cc4)c(N)oc3c2)cc1    1.75
COc1ccc(-c2cc(OCCN3CCOCC3)c3c(-c4cccs4)c(N)oc3c2)cc1    6.64
CCN(CC)CCOc1cc(-c2ccc(OC)c(OC)c2)cc2oc(N)c(-c3cccs3)c12    11.12
CCN(CC)CCOc1cc(-c2ccc(OC)cc2)cc2oc(N)c(-c3cccs3)c12    8.85

[a] COc1ccc(-c2cc(OCCN3CCOCC3)c3c(-c4cccs4)c(N)oc3c2)cc1OC
[b] COc1ccc(-c2cc(OC(C)=O)c3c(-c4ccc(Cl)c(Cl)c4)c(N)oc3c2)cc1
[c] COc1ccc(-c2cc(OCc3ccncc3)c3c(-c4cccs4)c(N)oc3c2)cc1
QUERY: Arrange by fold change (FC), high to low. Output spec: a listing of the labels in the requested order.
RESULT: a, c, b
(a: 8.42, c: 4.33, b: 1.83)

* * *

species on record: Homo sapiens; assay: Inhibition of P-gp in human HeLaS3 cells assessed as potentiation of vincristine-induced cytotoxicity at 1 uM by SRB assay relative to control; format: cell-based
Reported values of fold change (FC) for individual entries
Lab note: record just the number, no unit beside it.

Example entries begin here.
CCN(CC)CCOc1cc(-c2ccc(OC)c(OC)c2)cc2oc(N)c(-c3cccs3)c12    1.23
COc1ccc(-c2cc(OCCN3CCCC3)c3c(-c4cccs4)c(N)oc3c2)cc1    1.08

QUERY: So what's the measured fold change (FC) for this one? COc1ccc(CCN(C)CCCC(C#N)(c2ccc(OC)c(OC)c2)C(C)C)cc1OC (centres undefined)
RESULT: 1.27

QUERY: Reported fold change (FC) for COc1ccc(-c2cc(OCCN3CCCC3)c3c(-c4cccs4)c(N)oc3c2)cc1OC : what is it?
RESULT: 1.17

* * *

target: ATP-dependent translocase ABCB1 (Homo sapiens); assay: Inhibition of ABCB1 (unknown origin) expressed in Flp-In-293 cells assessed as increase in calcein-AM uptake at 2.5 uM preincubated for 30 mins followed by calcein-AM addition measured after 30 mins by fluorescence spectrometric method relative to control; assay type: cell-based; conditions: 0.5 h
attribute-measured: fold change (FC)

COc1ccc(-c2cc(OC(C)=O)c3c(-c4ccccc4)c(N)oc3c2)cc1    1.7
COc1ccc(-c2cc(OC(C)=O)c3c(-c4cccnc4)c(N)oc3c2)cc1    0.89

[I] CC(=O)Oc1cc(-c2ccccc2)cc2oc(N)c(-c3cccs3)c12
[II] COc1ccc(-c2cc(OC(C)=O)c3c(-c4ccc(Cl)cc4)c(N)oc3c2)cc1
QUERY: Sorting ascending by fold change (FC), which comes first: I or II ? Output the label that corresponds to your choice.
RESULT: I
(I: 0.95, II: 1.52)

[A] COc1ccc(-c2cc(OC(C)=O)c3c(-c4cccs4)c(N)oc3c2)cc1
[B] COc1ccc(-c2cc(OC(C)=O)c3c(-c4ccc(F)cc4)c(N)oc3c2)cc1
QUERY: Which value of fold change (FC) is smaller, the one for A or the one for B ? Answer with the label corresponding to your selection.
RESULT: B
